System: Rhipicephalus sanguineus
method_description: Rhipicephalus sanguineus in-vitro contact test, adult brown dog ticks (RHIPSA Cont)
Assay type: in vivo
condition_label: 48 h, application rate 5 μg/cm^2 (=500 g/ha), after 48 hours, read-out: activity (efficacy: 100% means all ticks are dead or moribund)
endpoint_label: pest or weed control at 5 µg/cm2, 500 g/ha (%)

>>> observed("C[C@H](NC(=O)c1cc(OC(F)F)cc(OC(F)F)c1)c1ncnn1-c1ccc(C#N)cn1 [II-77]")
100
>>> observed("C[C@H](NC(=O)c1cc(Cl)cc(OC(F)(F)F)c1)c1ncnn1-c1cc(NC(=O)C2CC2)ccn1 [II-25]")
80
>>> observed("Cc1nc([C@H](C)NC(=O)c2cc(C(F)(F)F)cc(C(F)(F)F)c2)n(-c2ccc(C(=O)N(C)CC(F)(F)F)cn2)n1 [II-93]")
100
>>> observed("C[C@H](NC(=O)c1cc(Cl)cc(Br)c1)c1nc(C2CC2)nn1-c1ccc(C#N)cn1 [I-32]")
100
>>> observed("C[C@H](NC(=O)c1cc(Cl)cc(OC(F)(F)F)c1)c1ncnn1-c1cc(C#N)ccn1 [II-33]")
80
>>> observed("C[C@H](NC(=O)c1cc(Cl)cc(C(F)(F)C(F)(F)F)c1)c1ncnn1-c1ncc(Cl)s1 [II-68]")
100
>>> observed("Cc1nc([C@H](C)NC(=O)c2cc(C(F)(F)F)cc(C(F)(F)F)c2)n(-c2ccc(C(=O)N(C)C3CC3)cn2)n1 [II-96]")
100
>>> observed("Cc1nc([C@H](C)NC(=O)c2cc(OC(F)F)cc(OC(F)F)c2)n(-c2ccc(C#N)cn2)n1 [II-115]")
100
>>> observed("CC(NC(=O)c1cc(Br)cc(C(F)(F)F)c1)c1nc(Cl)nn1-c1ccc(C#N)cn1 (stereo not shown) [I-40]")
100
>>> observed("C[C@H](NC(=O)c1cc(C(F)(F)F)cc(C(F)(F)F)c1)c1ncnn1-c1ccc(S(C)(=O)=O)cn1 [II-44]")
100
>>> observed("C[C@H](NC(=O)c1cccc(Cl)n1)c1ncnn1-c1ccc(C#N)cn1 [II-9]")
80
>>> observed("CCN(C)C(=O)c1ccc(-n2ncnc2[C@H](C)NC(=O)c2cc(Cl)cc(C(F)(F)F)c2)nc1 [II-27]")
100
>>> observed("COc1nc([C@H](C)NC(=O)c2cc(Br)cc(Br)c2)n(-c2ccc(C#N)cn2)n1 [I-61]")
100
>>> observed("C[C@H](NC(=O)c1cc(Cl)cc(SC(F)F)c1)c1ncnn1-c1ccc(C#N)cn1 [II-11]")
80
>>> observed("Cc1nc([C@H](C)NC(=O)c2cncc(Br)c2)n(-c2ccc(C#N)cn2)n1 [II-49]")
100
>>> observed("Cc1nc([C@H](C)NC(=O)c2cc(Cl)cc(C(F)(F)F)c2)n(-c2cc(C#N)ccn2)n1 [II-18]")
100

* * *

System: Rhipicephalus microplus
method_description: Rhipicephalus (Boophilus) microplus injection test (BOOPMI Inj)
Type: in vivo
condition_label: 168 h, application rate 4 μg/tick, injection into adult engorged female ticks, egg deposition after 7 days, read-out: activity (efficacy: 100% means all eggs are infertile)
endpoint_label: pest or weed control at 0.004 mg (%)

>>> observed("C[C@H](NC(=O)c1cc(Cl)cc(C(F)(F)F)c1)c1ncnn1-c1cc(-n2ccc(C(F)(F)F)n2)ccn1 [II-42]")
80
>>> observed("C[C@H](NC(=O)c1cc(Cl)cc(OC(F)F)c1)c1nc(C2CC2)nn1-c1ccc(C#N)cn1 [I-34]")
100
>>> observed("C[C@H](NC(=O)c1cc(Br)cc(OC(F)(F)F)c1)c1ncnn1-c1ccc(C#N)cn1 [II-14]")
100
>>> observed("Cc1nc([C@H](C)NC(=O)c2cc(C(F)(F)F)cc(C(F)(F)F)c2)n(-c2ccc(C(=O)N(C)C3CC3)cn2)n1 [II-96]")
100
